# TGI values compiled below
Test system: ACHN renal
Assay: NCI tumour cell line growth inhibition, 48 h

COMPOUND | TGI
C[C@@H]1CCC2[C@@H](C)[C@@H](OCCO[C@H]3OC4O[C@@]5(C)CCC6[C@H](C)CCC([C@H]3C)[C@@]46OO5)OC3O[C@@]4(C)CCC1[C@]32OO4 (some centres undefined) | > 100 µM
COC12C=C/C(=C(/C(=O)OCc3ccncc3)C(=O)CCCCCCCCC3(OC)C=C/C(=C(/C(=O)OCc4ccncc4)C(=O)CCCCCCCC1)O3)O2 | 1.14 µM
CC(CCC#N)(CCC#N)C(=O)CC(O)(C(F)(F)F)C(F)(F)F | 20.2 µM
CN(CCN(C)C(=S)NN)C(=S)NN | > 100 µM
O=c1c2c(-c3ccccc3)onc2n(-c2ccccc2)c(=O)n1-c1ccccc1 | > 100 µM
CC(/C=N\NC(=S)N1CCCCC1)=N/NC(=S)N1CCCCC1 | 7.16 µM
COc1ccc2[nH]cc(-c3nc(-c4c[nH]c5ncccc45)cs3)c2c1 | > 100 µM
CC(C)(C)NC(=O)N1N=C(c2ccccc2)C1c1ccccc1 (centres undefined) | > 100 µM
CC(C)(C)C(=O)OC(N)/C=C/c1ccccc1 (centres undefined) | > 100 µM
O=C(c1ccc(Cl)cc1)c1cnc(Nc2ccccc2Cl)s1 | 35.3 µM
CC(=O)O[C@H]1CCC2[C@@H]3CCC4=C(O)c5nocc5C[C@]4(C)C3CC[C@@]21C (some centres undefined) | > 100 µM
COc1ccc(C(OCC2OC(n3cc(C)c(=O)[nH]c3=O)CC2n2cc(Cn3cc(Br)c(=O)[nH]c3=O)nn2)(c2ccccc2)c2ccccc2)cc1 (centres undefined) | > 100 µM
Cc1ccc(C(=O)N/N=C(\N=Nc2ccccc2[N+](=O)[O-])c2ccc(N(C)C)cc2)cc1 | > 100 µM
N#Cc1c(-c2ccc(F)cc2)c(-c2ccc(F)cc2)nn(CCO)c1=O | > 81.1 µM
CC1=C2CCCC2=C/C(=N/Nc2ccc([N+](=O)[O-])cc2[N+](=O)[O-])CC1 | > 100 µM
Cc1ccc(-c2c3c(n(C4OC(CO)C(O)C(O)C4O)c(=S)c2C#N)CC(C)(C)CC3=O)cc1 (centres undefined) | > 100 µM
N#C/C(N)=C(\C#N)NC=NCc1ccccc1 | > 100 µM
O=C(O)CSc1n[nH]c(-c2ccccc2)n1 | > 100 µM
COc1ccc(CN(Cc2ccc(OC)cc2)C(=O)CC2(O)C=CCC2)cc1 (centres undefined) | > 100 µM
CCc1c(OC(C)=O)c2c(NC3OC(COC(C)=O)C(OC(C)=O)C(OC(C)=O)C3OC(C)=O)nc(OC)nc2oc1=O (centres undefined) | > 100 µM
Cc1ccc(/C=C/c2c(C(=O)/C=C/c3ccc(C(F)(F)F)cc3)c(C)nc3ccccc23)cc1 | 2.7 µM
c1ccc(SC2CCSc3ccccc3C2Sc2ccccc2)cc1 (centres undefined) | > 100 µM
O=c1[nH]cc(COCCO)c(=O)[nH]1 | > 100 µM
O=C(NCCCN(CCCCN(CCCNC(=O)C(F)(F)F)CCCc1ccccc1)CCCc1ccccc1)C(F)(F)F | 3.42 µM
O=C(NCCCCN=c1cccccc1NCCCCNC(=O)OCc1ccccc1)OCc1ccccc1 | 59.5 µM
Cc1ccc(NC(=O)C2C(=O)N(c3ccc(C)c(C)c3)C(=O)C2N=N)cc1C (centres undefined) | > 100 µM
CC(C)C[C@H]1[C@@H](OCc2ccccc2)COS(=O)N1[C@H](C)c1ccccc1 (some centres undefined) | > 100 µM
C=Cc1c(C)c2cc3nc(cc4[nH]c(cc5nc(cc1[nH]2)C(C)=C5CCC(=O)O)c(CCC(=O)OC)c4C)[C@@]1(C)C3=CC=C(C(=O)OC)[C@H]1C(=O)OC | 2.62 µM
S=c1[nH]n2c(COc3cccc(OCc4nnc5sc(=S)[nH]n45)c3)nnc2s1 | > 100 µM
CCOc1ccc2nc(S/C(=C/C=C(C#N)C#N)c3ccc(C)cc3)sc2c1 | 36.9 µM
CC1(C)OC2C(O)CN3CCS[C@H]3C2O1 (some centres undefined) | > 100 µM
COC(=O)[C@]1(C)CCCC2(C)C1CC[C@H]1C=C(C)[C@H]3CCC12C3 (some centres undefined) | > 100 µM
O=[N+]([O-])c1cc2c(c3nonc13)OCCCCO2 | 19.6 µM
Cc1ccc(S(=O)(=O)N/N=C/c2oc(-c3ccncc3)c(-c3ccncc3)c2[N+](=O)[O-])cc1 | > 100 µM
C[C@@]12CCC3C1C=C1C(=O)c4cc(O)ccc4C(=O)[C@]1(O2)[C@@]3(C)C=O | 17.1 µM
CN1CCN(CN2C(=O)C3C4C=CC(C3C2=O)C2C(=O)N(CN3CCN(C)CC3)C(=O)C42)CC1 (centres undefined) | > 100 µM
CCOc1ccc2c(c1)[n+]([O-])c(-c1ccccc1Cl)c(N)[n+]2[O-] | > 100 µM
COc1cc(C2SCC(=O)N2c2ccc(Cl)c(Cl)c2)cc(OC)c1OC (centres undefined) | > 100 µM
N#CC1(C#N)C2CCCCC23OC(=N)C1(C#N)C(c1ccccc1)O3 (centres undefined) | > 100 µM
